tested on: phosphate uptake by rabbit intestinal Brush Border Membrane Vesicles (BBMV); assay: 33PO4 uptake in rabbit intestinal BBMV (HTS), phosphate transporter inhibition in vitro; format: biochemical; details: Table 8, 100 μM compound
Reported % Inhib. at 100 μM is given for each of the following compounds.
REPORTED METRIC: % Inhib. at 100 μM

>>> result("CCCCOc1ccc(C(=O)Nc2ccc(Br)cc2P(=O)(OCC)OCC)cc1")
"57%"
>>> result("CCCCCCCc1ccc(C(=O)Nc2ccc(Br)cc2P(=O)(OCC)OCC)cc1")
"53%"
>>> result("CCOP(=O)(OCC)c1cc(Br)ccc1NC(=O)c1ccc(OC)c(OC)c1")
"48%"
>>> result("CCOP(=O)(OCC)c1cc(Br)ccc1NC(=O)c1ccc(Br)cc1")
"67%"
